These entries and their values trace back to patent US7148229B2.

Molecular target: recombinant human cytosolic PEPCK (GST-PEPCK) (Homo sapiens)
Sequence (P35558 1-622): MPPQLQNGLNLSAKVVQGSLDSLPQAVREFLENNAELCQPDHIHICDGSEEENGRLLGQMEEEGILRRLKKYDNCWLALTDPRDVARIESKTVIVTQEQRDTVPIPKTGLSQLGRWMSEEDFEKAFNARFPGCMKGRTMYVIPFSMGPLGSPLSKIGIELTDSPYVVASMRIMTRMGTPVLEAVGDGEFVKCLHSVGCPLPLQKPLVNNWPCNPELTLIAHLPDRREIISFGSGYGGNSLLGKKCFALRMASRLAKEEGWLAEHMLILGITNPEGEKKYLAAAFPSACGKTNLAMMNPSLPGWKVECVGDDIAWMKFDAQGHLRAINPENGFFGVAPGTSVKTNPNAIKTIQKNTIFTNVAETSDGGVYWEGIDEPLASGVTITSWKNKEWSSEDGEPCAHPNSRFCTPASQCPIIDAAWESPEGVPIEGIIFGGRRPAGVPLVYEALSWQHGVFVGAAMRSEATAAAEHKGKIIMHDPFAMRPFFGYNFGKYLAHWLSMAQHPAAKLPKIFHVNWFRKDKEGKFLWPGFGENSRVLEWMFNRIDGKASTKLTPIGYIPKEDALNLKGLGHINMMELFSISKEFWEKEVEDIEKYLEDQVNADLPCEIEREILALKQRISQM
Assay: PEPCK enzyme assay (coupled to pyruvate kinase / lactate dehydrogenase, absorbance at 340 nm)
Conditions: in vitro PEPCK enzymatic assay; GTP at 3 fold and OAA at 10 fold Km; final DMSO 10%; room temperature, twenty minutes
readout-name: log10(IC50) (log10 of the value in nM)
log10 IC50, nM

Hi! What's the reported log10(IC50) for O=c1c2[nH]c(Cc3ccc(NS(=O)(=O)c4cccc5cccnc45)cc3)nc2n(CC2CC2)c(=O)n1Cc1ccccc1F [Example 19] on recombinant human cytosolic PEPCK (GST-PEPCK) (Homo sapiens)?
2.65

Consider next the molecule Cn1cc(S(=O)(=O)Nc2ccc(Cc3nc4c([nH]3)c(=O)n(Cc3ccccc3F)c(=O)n4CC3CC3)cc2)cn1 [Example 2] in the same way.
2.59

Consider next the molecule O=c1c2[nH]c(Cc3ccc(NS(=O)(=O)c4cccnc4)cc3)nc2n(CC2CC2)c(=O)n1Cc1ccccc1F [Example 22] in the same way.
3.29

Consider next the molecule Cc1nc(N)sc1S(=O)(=O)Nc1ccc(Cc2nc3c([nH]2)c(=O)n(Cc2ccccc2F)c(=O)n3CC2CC2)cc1 [Example 11] in the same way.
2.36

Consider next the molecule Cc1nn(C)cc1S(=O)(=O)Nc1ccc(Cc2nc3c([nH]2)c(=O)n(Cc2ccccc2F)c(=O)n3CC2CC2)cc1 [Example 7] in the same way.
2.18

Consider next the molecule CCCCn1c(=O)n(Cc2ccccc2F)c(=O)c2[nH]c(Cc3ccc(S(=O)(=O)Nc4ccncc4)cc3)nc21 [Example 29] in the same way.
3.38

Consider next the molecule Cc1nn(C)c(Cl)c1S(=O)(=O)Nc1cccc(Cc2nc3c([nH]2)c(=O)n(Cc2ccccc2F)c(=O)n3CC2CC2)c1 [Example 6] in the same way.
3.04

---

target: recombinant human cytosolic PEPCK (GST-PEPCK) (Homo sapiens); assay: PEPCK enzyme assay (coupled to pyruvate kinase / lactate dehydrogenase, absorbance at 340 nm); settings: in vitro PEPCK enzymatic assay; GTP at 3 fold and OAA at 10 fold Km; final DMSO 10%; room temperature, twenty minutes
readout-name: pIC50
Just so you know, pIC50 here is -log10 of the concentration in molar units; reply with that number alone.

What pIC50 value was documented for this compound, CS(=O)(=O)Nc1ccc(Cc2nc3c([nH]2)c(=O)n(Cc2ccccc2F)c(=O)n3CC2CC2)cc1 ?
5.90

Consider next the compound O=c1c2[nH]c(Cc3ccc(NS(=O)(=O)c4cccc(F)c4)cc3)nc2n(CC2CC2)c(=O)n1Cc1ccccc1F in the same way.
5.59

Consider next the compound Cc1nn(C)c(Cl)c1S(=O)(=O)Nc1ccc(Cc2nc3c([nH]2)c(=O)n(Cc2ccccc2F)c(=O)n3CC2CCC2)nc1 in the same way.
6.01

Consider next the compound Cc1nn(C)c(Cl)c1S(=O)(=O)N(C)c1ccc(Cc2nc3c([nH]2)c(=O)n(Cc2ccccc2F)c(=O)n3CC2CC2)cc1 in the same way.
5.69

Consider next the compound CN(C)S(=O)(=O)Nc1ccc(Cc2nc3c([nH]2)c(=O)n(Cc2ccccc2F)c(=O)n3CC2CC2)cc1 in the same way.
6.02

Consider next the compound CCCCn1c(=O)n(Cc2ccccc2F)c(=O)c2[nH]c(Cc3ccc(S(=O)(=O)Nc4ccccn4)cc3)nc21 in the same way.
5.62

Consider next the compound CC(=O)Nc1ccc(S(=O)(=O)Nc2ccc(Cc3nc4c([nH]3)c(=O)n(Cc3ccccc3F)c(=O)n4CC3CC3)cc2)cc1 in the same way.
5.20
